# Measurement target: T1, CD27 expressed on the cell surface (HT1080_CD27 cells) (human, UniProt P26842 20-260); further: test concentration or dose not given here
# T1 sequence (looked up): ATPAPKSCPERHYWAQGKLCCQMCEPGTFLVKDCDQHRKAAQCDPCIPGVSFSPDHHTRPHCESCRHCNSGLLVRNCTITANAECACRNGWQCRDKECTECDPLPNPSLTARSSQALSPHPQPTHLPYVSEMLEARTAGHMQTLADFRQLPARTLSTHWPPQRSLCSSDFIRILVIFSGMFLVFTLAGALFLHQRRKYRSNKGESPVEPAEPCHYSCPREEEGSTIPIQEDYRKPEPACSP
# Run description: cell-based or functional assay
Measured parameter: IL-8, cross-linked by F(ab')2 fragment [abs. corr.] (abs. corr.)
Give the quantity in abs. corr., number only.

Here's what some known entries look like.
INSERT INTO results (binder, recorded_measurement) VALUES
  ('P018.S.06.A.F01 (antibody, V domains shown, V regions on human Ig constant parts; also called AB27_107) VH: QSLEESGGRLVTPGTPLTLTCTASGFSLSSYYMTWVRQAPGEGLEWIGTISTAGNTYFASWAKGRFTISRTSTTVDLKMTSPTTEDTATYFCARDGAGDSNYYRNLWGQGTLVTVSS VL: AYDMTQTPASVEAAVGGTVTIKCQASESIDRFLAWYQQKPGQPPKLLIVDASTLESGVPSRFSGSGSGTEFTLTISDLESDNAATYYCQQGYSISDIDNVFGGGTEVVVK', 1.08),
  ('P018.S.01.A.E03 (antibody, V domains shown, V regions on human Ig constant parts; also called AB27_15) VH: QSVEESGGRLVTPGTPLTLTCTVSGFSLSSYAMGWVRQAPGKGLQWIGILYRNDAASYANWAKGRFTISKTSTTVDLTMPSLTTEDTATYFCVRGYVNDGYYNLWGQGTLVTVSS VL: AYDMTQTPASVEVAVGGTVTIKCQASESIGYRLAWYQQKSGQPPKLLIFDASDLASGVPSRFKGSGSGKHFTLTISGVQSADAATYYCQQDYSYSIIDNSFGGGTEVVVK', 1.22);

Q: So what's the measured IL-8, cross-linked by F(ab')2 fragment [abs. corr.] for this one? P018.S.07.A.D04 (antibody, V domains shown, V regions on human Ig constant parts; also called AB27_123) VH: QSLEESGGRLVTPGGSLTLTCTVSGIDLSSYAMGWVRQAPGKGLEWIGIISSSGSTYYASWANGRFTISKTSTTVDLKVTSPTTEDTATYFCARDGDSGRGYYFHFWGQGTLVTVSS VL: AFELTQTPASVSAAVGGTVTIKCQASEDIYSLLAWYQQKPGQPPKLLIYDASDLASGVPSRFSGSGSGTEYTLTISDLESADAAIYYCQQGYTTVTIVDNVFGGGTEVVVK
A: 1.81

Q: Would you mind doing P018.S.03.A.G06 (antibody, V domains shown, V regions on human Ig constant parts; also called AB27_59) VH: QSLEESGGDLVKPGASLTLTCTASGFSFSRNNYMCWVRQAPGKGLESIACIHDGNSVGIYYTTWAKGRFTISKTSSTTVTLQMTSLTVADTATYFCARMSYTNDWDPIWGPGTLVTVSS VL: DIVMTQTPASVEAAVGGTVTIDCQASENIYSLLAWYQQKPGQPPKVLISLASNLASGVPSRFKGSGSGTQFSLTISDLESADAATYYCQGYYYSSSTSYENAFGGGTEVVVS as well?
A: 1.36

Q: Param item: P018.S.03.A.B05 (antibody, V domains shown, V regions on human Ig constant parts; also called AB27_43) VH: QEQLEESGGDLVKPEGSLTLTCTASGFDLSSRYWICWVRQAPGKGLEWIGCIKTGFSNTWYASWATGRFTFSKASSTTVTLQMTSLTVADTATYFCARIAAAASASDDFRLWGPGTLVTVSS VL: AQVLTQTPSSVSAAVGGTVTISCQSSKSVYNKWLSWFQQKPGQPPKLLIYDASDLASGVPSRFKGSGSGTEFTLTISDVQSDDAATYFCLGHYDSSSDRFVFGGGTEVVVK
A: 1.21
